assayDetails: method code SF-AS, from DOI: 10.1111/j.2042-7158.1991.tb06664.x, PMID: 1675277
Quick rule for you: logP at 1 or higher means Yes, lower means No.

* Nc1ccc(S(=O)(=O)c2ccc(NO)cc2)cc1 | No
* CCN(CC)C(=O)c1ccc(S(=O)(=O)c2ccc(N)cc2)cc1 | Yes
* Cc1cc(C)c(S(=O)(=O)c2ccc(N)cc2)c(C)c1 | Yes

Challenge: Would you say Nc1ccc(S(=O)(=O)c2ccc(Cl)cc2Cl)cc1 shows logP at minimum 1?
Response given: Yes

Challenge: Would you say CCNc1ccc(S(=O)(=O)c2ccc(N)cc2)cc1 shows logP at minimum 1?
Response given: Yes

###

endpoint: logP
Answer with a bare number; do not write a unit.

# count of solved cases: 4
* CC(=O)c1ccc(S(N)(=O)=O)cc1 | 0.31
* Nc1ccc(S(=O)(=O)c2ccccc2)cc1 | 1.84
* Nc1ccc(S(=O)(=O)c2ccc([N+](=O)[O-])cc2[N+](=O)[O-])cc1 | 1.84
* Nc1ccc(S(=O)(=O)c2ccc([N+](=O)[O-])cc2)cc1 | 2.03

Kindly review the next molecule as well.
Challenge: Which logP value is on record for NC(=O)c1cccc(S(N)(=O)=O)c1 ?
Response given: -0.55

###

Entries annotated with measured logP
assayDetails: method code SF-AS, from DOI: 10.1111/j.2042-7158.1991.tb06664.x, PMID: 1675277
Answer with a bare number; do not write a unit.

# count of solved cases: 2
* Nc1ccc(S(=O)(=O)c2ccc(N)cc2N)cc1 | 0.38
* COc1ccc(S(=O)(=O)c2ccc(N)cc2)cc1 | 1.96

Challenge: Which logP value is on record for Nc1ccc(S(=O)(=O)c2ccc(O)cc2)cc1 ?
Response given: 1.57

Challenge: Which logP value is on record for Nc1ccc(S(=O)(=O)c2ccc(F)cc2)cc1 ?
Response given: 2.01

Challenge: Which logP value is on record for NC(=O)c1ccc(S(=O)(=O)c2ccc(N)cc2)cc1 ?
Response given: 0.9

Challenge: Which logP value is on record for Nc1ccc(S(=O)(=O)c2ccccc2N)cc1 ?
Response given: 1.56

Challenge: Which logP value is on record for COc1cc(OC)c(S(=O)(=O)c2ccc(N)cc2)c(OC)c1 ?
Response given: 1.03

Challenge: Which logP value is on record for CC(=O)c1ccc(S(=O)(=O)c2ccc(N)cc2)cc1 ?
Response given: 1.67

Challenge: Which logP value is on record for Nc1ccc(S(=O)(=O)c2c(O)cc(O)cc2O)cc1 ?
Response given: 1.53

Challenge: Which logP value is on record for Cc1ccc(S(=O)(=O)c2ccc(N)cc2)cc1 ?
Response given: 2.4

Challenge: Which logP value is on record for CCN(CC)c1ccc(S(=O)(=O)c2ccc(N)cc2)cc1 ?
Response given: 3

Challenge: Which logP value is on record for Nc1ccc(S(=O)(=O)c2ccc(Cl)cc2)cc1 ?
Response given: 2.57

###

assayDetails: method code SF-AS, from DOI: 10.1111/j.2042-7158.1991.tb06664.x, PMID: 1675277
Entries annotated with measured logP

# count of solved cases: 2
* Nc1ccc(S(=O)(=O)c2ccc(O)cc2O)cc1 | 1.29
* N#Cc1ccc(S(=O)(=O)c2ccc(N)cc2)cc1 | 1.63

Kindly review the next molecule as well.
Challenge: Which logP value is on record for Nc1ccc(S(=O)(=O)c2cccc(N)c2)cc1 ?
Response given: 1.03
